Quick record: pIC50, Mitogen-activated protein kinase 10 (Homo sapiens).
pIC50: −log10 of the molar value.

[
  {
    "Molecular string": "COc1cc(-n2ccc(-c3ccc(OC(F)(F)F)cc3)cc2=O)ccc1OCCO",
    "pIC50": 6.87
  },
  {
    "Molecular string": "COc1cc(-n2ccc(-c3ccc(C(F)(F)F)cc3)cc2=O)ccc1OCC(C)(C)O",
    "pIC50": 6.80
  },
  {
    "Molecular string": "COc1cc(-n2ccc(SCc3ccc(Cl)cc3)cc2=O)ccc1OCC(C)(C)O",
    "pIC50": 6.83
  },
  {
    "Molecular string": "O=C1c2ccccc2-c2n[nH]c3cccc1c23",
    "pIC50": 6.66
  }
]
